# study target: BRD4(BD1) (Homo sapiens)
# test: ITC binary titration, TCIP1 and BRD4
# measurement conditions: read-out: Kd of BRD4-TCIP1 (binary)
observed property: pKd
pKd field: float, defined as -log10 of concentration (mol/L).

Input line: Param item = CNC(=O)COc1cc2cc(Nc3nc(N4CCC(C(=O)NCCCCCCCNC(=O)C[C@@H]5N=C(c6ccc(Cl)cc6)c6c(sc(C)c6C)-n6c(C)nnc65)CC4)ncc3Cl)cc(OC)c2n(C)c1=O ; retrieve measured pKd.
Output line: 5.29
